# Assay explanation: Pharmacokinetics in rats after single iv, po or sc dose (plasma and brain)
# Assay type: in vivo, Sprague-Dawley rats
# Measurement setup: male, Sprague-Dawley, rat, brain, iv, 1.22 mg/kg, rat brain, IV 1.22 mg eq./kg; read-out: AUC(0-∞)

>  <Compound>
CC12CC3CC(C)(C1)CC(N)(C3)C2 [memantine]

>  <Unit name>
µM·h

>  <AUC(0-inf)>
47.6

$$$$

* * *

# Test system: OATP2B1 (Homo sapiens, UniProt O94956)
# Sequence (O94956 1-709): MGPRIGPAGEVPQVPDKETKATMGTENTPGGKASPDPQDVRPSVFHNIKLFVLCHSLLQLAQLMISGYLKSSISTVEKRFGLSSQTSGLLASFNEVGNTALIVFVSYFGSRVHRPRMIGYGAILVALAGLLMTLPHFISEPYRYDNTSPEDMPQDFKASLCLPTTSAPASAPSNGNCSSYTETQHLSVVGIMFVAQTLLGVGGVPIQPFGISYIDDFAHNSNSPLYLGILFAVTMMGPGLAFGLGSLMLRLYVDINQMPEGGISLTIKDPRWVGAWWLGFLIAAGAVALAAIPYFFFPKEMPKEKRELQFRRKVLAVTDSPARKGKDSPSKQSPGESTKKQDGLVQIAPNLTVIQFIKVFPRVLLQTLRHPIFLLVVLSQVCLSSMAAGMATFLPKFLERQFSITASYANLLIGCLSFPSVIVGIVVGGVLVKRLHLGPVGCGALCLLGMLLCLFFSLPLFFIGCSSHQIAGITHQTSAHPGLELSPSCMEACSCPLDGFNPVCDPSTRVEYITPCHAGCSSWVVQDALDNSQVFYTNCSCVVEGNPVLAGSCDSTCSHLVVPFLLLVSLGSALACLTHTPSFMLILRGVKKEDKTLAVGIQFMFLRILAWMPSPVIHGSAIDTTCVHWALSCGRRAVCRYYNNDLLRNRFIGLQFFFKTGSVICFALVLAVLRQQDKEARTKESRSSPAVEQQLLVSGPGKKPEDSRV
# Assay explanation: Indirect uptake transporter assay, OATP2B1
# Measurement setup: OATP2B1; probe printed in Table 5: TEA (3.6 μM); methods and text: E3S

>  <Compound>
CC12CC3CC(C)(C1)CC(N)(C3)C2 [memantine]

>  <IC50>
> 300 µM

$$$$

* * *

# Assay explanation: Pharmacokinetics in rats after single iv, po or sc dose (plasma and brain)
# Format: in vivo, Sprague-Dawley rats
# Measurement setup: male, Sprague-Dawley, rat, brain, sc, 1 mg/kg, rat brain, SC 1.0 mg eq./kg; read-out: Half-life (t½) (converted)

>  <Compound>
CC12CC3CC(C)(C1)CC(N)(C3)C2 [memantine]

>  <Unit name>
h

>  <half-life>
2.51

$$$$

* * *

# Assay explanation: Pharmacokinetics in rats after single iv, po or sc dose (plasma and brain)
# Format: in vivo, Sprague-Dawley rats
# Measurement setup: male, Sprague-Dawley, rat, plasma, iv, 1.22 mg/kg, rat plasma, IV 1.22 mg eq./kg; read-out: AUC(0-∞)

>  <Molecule>
CC12CC3CC(C)(C1)CC(N)(C3)C2 [memantine]

>  <Unit name>
µM·h

>  <AUC(0-inf)>
1.64

$$$$

* * *

# Assay explanation: Pharmacokinetics in rats after single iv, po or sc dose (plasma and brain)
# Type: in vivo, Sprague-Dawley rats
# Measurement setup: male, Sprague-Dawley, 10 mg/kg; rat brain, PO 10.0 mg eq./kg

>  <Compound>
CC12CC3CC(C)(C1)CC(N)(C3)C2 [memantine]

>  <AUC(0-t)>
254 µM·h

$$$$

* * *

# Assay explanation: Pharmacokinetics in rats after single iv, po or sc dose (plasma and brain)
# Format: in vivo, Sprague-Dawley rats
# Measurement setup: male, Sprague-Dawley, 10 mg/kg; rat plasma, SC 10.0 mg eq./kg; read-out: Observed Tmax

>  <Molecule>
CC12CC3CC(C)(C1)CC(N)(C3)C2 [memantine]

>  <Tmax (min)>
30

$$$$

* * *

# Assay explanation: Pharmacokinetics in rats after single iv, po or sc dose (plasma and brain)
# Type: in vivo, Sprague-Dawley rats
# Measurement setup: male, Sprague-Dawley, rat, plasma, po, 10 mg/kg, rat plasma, PO 10.0 mg eq./kg; read-out: AUC(0-∞)
# Procedure: Sprague Dawley (SD) rats (138 adult males), and C57Bl/6 mice (140 adult males), were obtained (Hilltop Laboratories, Scottsdale, PA); 123 per species were used in the study and the remainder provided blank matrix. […] The area under the plasma concentration versus time curve (AUC) was calculated using the linear trapezoidal method (linear interpolation). […] Concentrations of memantine in rat and mouse plasma and brain were determined using an LC-MS/MS assay developed at ABC Laboratories.
Endpoint name: AUC(0-inf) (µM·h)

>  <Molecule>
CC12CC3CC(C)(C1)CC(N)(C3)C2 [memantine]

>  <Endpoint name>
AUC(0-inf)

>  <Reported>
11.4

$$$$

* * *

# Assay explanation: in vivo
# Measurement setup: male, C57Bl/6, mouse, po

>  <Compound>
CC12CC3CC(C)(C1)CC(N)(C3)C2 [memantine]

>  <bioavailability>
85%

$$$$

* * *

# Assay explanation: Pharmacokinetics in rats after single iv, po or sc dose (plasma and brain)
# Assay type: in vivo, Sprague-Dawley rats
# Measurement setup: male, Sprague-Dawley, brain/plasma; rat, PO 1.22 mg eq./kg; read-out: Ratio of Brain-to-Plasma AUC(0-∞)
Endpoint name: Kp

>  <Compound>
CC12CC3CC(C)(C1)CC(N)(C3)C2 [memantine]

>  <Reported>
35.6

$$$$

* * *

# Assay explanation: Pharmacokinetics in rats after single iv, po or sc dose (plasma and brain)
# Type: in vivo, Sprague-Dawley rats
# Measurement setup: male, Sprague-Dawley, 10 mg/kg; rat plasma, PO 10.0 mg eq./kg; read-out: Observed Tmax
Endpoint name: Tmax (min)

>  <Molecule>
CC12CC3CC(C)(C1)CC(N)(C3)C2 [memantine]

>  <Endpoint name>
Tmax

>  <Reported>
30

$$$$

* * *

# Assay explanation: Pharmacokinetics in rats after single iv, po or sc dose (plasma and brain)
# Type: in vivo, Sprague-Dawley rats
# Measurement setup: male, Sprague-Dawley, subcutaneous; rat plasma, po and sc, all dose levels; read-out: Tmax after extravascular administration
Endpoint name: Tmax

>  <Compound>
CC12CC3CC(C)(C1)CC(N)(C3)C2 [memantine]

>  <Reported>
30 to 60 min

$$$$

* * *

# Assay explanation: Pharmacokinetics in rats after single iv, po or sc dose (plasma and brain)
# Format: in vivo, Sprague-Dawley rats
# Measurement setup: male, Sprague-Dawley, rat, brain, po, 1.22 mg/kg, rat brain, PO 1.22 mg eq./kg; estimated using the LOQ for the 24 hr concentration, large imprecision; read-out: Half-life (t½) (converted)
# Protocol: Sprague Dawley (SD) rats (138 adult males), and C57Bl/6 mice (140 adult males), were obtained (Hilltop Laboratories, Scottsdale, PA); 123 per species were used in the study and the remainder provided blank matrix. […] The area under the plasma concentration versus time curve (AUC) was calculated using the linear trapezoidal method (linear interpolation). […] Concentrations of memantine in rat and mouse plasma and brain were determined using an LC-MS/MS assay developed at ABC Laboratories.

>  <Compound>
CC12CC3CC(C)(C1)CC(N)(C3)C2 [memantine]

>  <half-life>
< 2.54 h

$$$$

* * *

# Assay explanation: Pharmacokinetics in rats after single iv, po or sc dose (plasma and brain)
# Assay type: in vivo, Sprague-Dawley rats
# Measurement setup: male, Sprague-Dawley, 1.22 mg/kg; rat plasma, PO 1.22 mg eq./kg
Endpoint name: AUC(0-t) (µM·h)

>  <Compound>
CC12CC3CC(C)(C1)CC(N)(C3)C2 [memantine]

>  <Reported>
0.541

$$$$

* * *

# Assay explanation: in vivo
# Measurement setup: male, C57Bl/6, mouse, po, 1 mg/kg, C max

>  <Compound>
CC12CC3CC(C)(C1)CC(N)(C3)C2 [memantine]

>  <Unit name>
nM

>  <Cmax>
500

$$$$

* * *

# Assay explanation: Pharmacokinetics in rats after single iv, po or sc dose (plasma and brain)
# Assay type: in vivo, Sprague-Dawley rats
# Measurement setup: male, Sprague-Dawley, rat, brain, sc, 10 mg/kg, rat brain, SC 10.0 mg eq./kg; read-out: AUC(0-∞)

>  <Compound>
CC12CC3CC(C)(C1)CC(N)(C3)C2 [memantine]

>  <AUC(0-inf) [µM·h]>
442

$$$$

* * *

# Assay explanation: Pharmacokinetics in rats after single iv, po or sc dose (plasma and brain)
# Format: in vivo, Sprague-Dawley rats
# Measurement setup: male, Sprague-Dawley, 10 mg/kg; rat brain, PO 10.0 mg eq./kg; read-out: Observed Tmax

>  <Molecule>
CC12CC3CC(C)(C1)CC(N)(C3)C2 [memantine]

>  <Tmax (h)>
2

$$$$

* * *

# Assay explanation: Pharmacokinetics in rats after single iv, po or sc dose (plasma and brain)
# Assay type: in vivo, Sprague-Dawley rats
# Measurement setup: male, Sprague-Dawley, rat, plasma, sc, 1 mg/kg, rat plasma, SC 1.0 mg eq./kg; read-out: Half-life (t½) (converted)
Endpoint name: half-life (min)

>  <Compound>
CC12CC3CC(C)(C1)CC(N)(C3)C2 [memantine]

>  <Endpoint name>
half-life

>  <Reported>
109

$$$$
